system: Salmonella typhimurium; assay: Antimicrobial activity against Salmonella Typhimurium ATCC 14028 assessed as inhibition of planktonic growth at 20 uM at 25 degC after 24 hrs; type: functional, organism-based; settings: Salmonella enterica subsp. enterica serovar Typhimurium
The source made the active and inactive calls. The calls are words filed in the database; no cut-off is given here.
Hello, when you answer, please use one of the following outcomes: active, inactive

Example cases with answers are listed next.
>  <Smiles string>
CCCCn1c(-c2ccc(-c3ccccc3)cc2)cnc1N

>  <Answer label>
active

$$$$
>  <Smiles string>
CCCCCCCCn1c(-c2ccc(S(C)(=O)=O)cc2)cnc1N

>  <Answer label>
inactive

$$$$
>  <Smiles string>
CCCCCCCC[n+]1c(-c2ccc(SC)cc2)cn2cccnc21.[O-][Cl+3]([O-])([O-])[O-]

>  <Answer label>
active

$$$$

As a next step, examine the compound that follows.
// query Dear colleague, could you share the recorded outcome for "CCCCCCCCn1c(-c2ccc(-c3ccccc3)cc2)cnc1N" when you have a moment?
// result active

###

tested on: Salmonella typhimurium; experiment: Antibiofilm activity in Salmonella Typhimurium ATCC 14028 assessed as inhibition of biofilm formation at 25 degC after 24 hrs; format: functional, organism-based, Salmonella enterica subsp. enterica serovar Typhimurium; settings: Salmonella enterica, ATCC 14028, 24 h
Exam item: assign 1 to entries whose IC50 is below 20 µM and 0 to entries at or above 20 µM. Note that a value of exactly 20 µM receives 0.

Example cases with answers are listed next.
>  <Smiles string>
CCCCCn1c(-c2ccc(Cl)cc2)cnc1N

>  <Answer label>
1

$$$$
>  <Smiles string>
Nc1ncc(-c2ccccc2)n1C1CCCC1

>  <Answer label>
0

$$$$
>  <Smiles string>
Nc1ncc(-c2ccccc2)n1C1CC1

>  <Answer label>
0

$$$$
>  <Smiles string>
O=[N+]([O-])c1ccc(-c2cn3cccnc3[n+]2C2CCCCC2)cc1.[O-][Cl+3]([O-])([O-])[O-]

>  <Answer label>
0

$$$$
>  <Smiles string>
CCCCn1c(-c2ccc(-c3ccccc3)cc2)cnc1N

>  <Answer label>
0

$$$$
>  <Smiles string>
Nc1ncc(-c2ccccc2)n1C1CCCCC1

>  <Answer label>
0

$$$$
>  <Smiles string>
CC(C)[n+]1c(-c2ccc([N+](=O)[O-])cc2)cn2cccnc21.[O-][Cl+3]([O-])([O-])[O-]

>  <Answer label>
0

$$$$
>  <Smiles string>
CCCCCCCn1c(-c2ccccc2)cnc1N

>  <Answer label>
1

$$$$

// query Problem: For the compound "CCCCCCCCCCCn1c(-c2ccccc2)cnc1N" , is IC50 under 20 µM?
// result 1

// query Problem: For the compound "Nc1ncc(-c2ccccc2)[nH]1" , is IC50 under 20 µM?
// result 0

// query Problem: For the compound "COc1ccc(CCn2c(-c3ccccc3)cnc2N)cc1OC" , is IC50 under 20 µM?
// result 0

// query Problem: For the compound "CCCCCCCCn1c(-c2ccc(Cl)cc2)cnc1N" , is IC50 under 20 µM?
// result 1

// query Problem: For the compound "CCCCCCCCn1c(-c2ccc(Cl)c(Cl)c2)cnc1N" , is IC50 under 20 µM?
// result 1

// query Problem: For the compound "COc1ccc(Cn2c(-c3ccccc3)cnc2N)cc1OC" , is IC50 under 20 µM?
// result 0

// query Problem: For the compound "Nc1nc(-c2ccccc2)c(-c2ccccc2)n1C1CCCCC1" , is IC50 under 20 µM?
// result 0

// query Problem: For the compound "CCCCCCCCCCCn1c(-c2ccc(-c3ccccc3)cc2)cnc1N" , is IC50 under 20 µM?
// result 0

// query Problem: For the compound "Nc1ncc(-c2ccc(Cl)cc2)n1Cc1ccccc1" , is IC50 under 20 µM?
// result 0

// query Problem: For the compound "Nc1ncc(-c2ccc(-c3ccccc3)cc2)n1C1CCCC1" , is IC50 under 20 µM?
// result 1

// query Problem: For the compound "CCCCCCCn1c(-c2ccc(-c3ccccc3)cc2)cnc1N" , is IC50 under 20 µM?
// result 1

// query Problem: For the compound "Nc1ncc(-c2ccc(Cl)cc2)n1C1CCCCC1" , is IC50 under 20 µM?
// result 0

// query Problem: For the compound "CCn1c(-c2ccc(Cl)cc2)cnc1N" , is IC50 under 20 µM?
// result 0

// query Problem: For the compound "CCCCCCCC[n+]1c(-c2cccc(Br)c2)cn2cccnc21.[O-][Cl+3]([O-])([O-])[O-]" , is IC50 under 20 µM?
// result 1

// query Problem: For the compound "CCCCCCCCn1c(-c2ccc(-c3ccc(-c4ccccc4)cc3)cc2)cnc1N" , is IC50 under 20 µM?
// result 0

// query Problem: For the compound "Nc1nc(-c2ccccc2)c(-c2ccc(C(F)(F)F)cc2)[nH]1" , is IC50 under 20 µM?
// result 0

// query Problem: For the compound "Nc1ncc(-c2ccccc2)n1C1CCCCCCCCCCC1" , is IC50 under 20 µM?
// result 1

Source of measurements: ChEMBL document CHEMBL1649413
